test system: HOP-62; test: NCI tumour cell line growth inhibition, 48 h
Calls of active or inactive are those of the source. No stated cut-off is given here; in the data, active = GI50 up to about 1.1 µM and inactive = higher.
Result category, one only: active, inactive

Each molecule tested received a call. Report the one for O=[N+]([O-])c1ccc(C2SCc3nc4ccccc4n32)cc1 (centres undefined) .
inactive

Each molecule tested received a call. Report the one for C[C@H](CO)C1=CC(C#C[Si](C)(C)C)N(C(=O)Oc2ccccc2)c2ccccc21 (some centres undefined) .
inactive

Each molecule tested received a call. Report the one for "OCCNc1nc2c(N3CCCC3)nc(N3CCNCC3)nc2nc1NCc1ccccc1" .
inactive

Each molecule tested received a call. Report the one for CC1=C(c2ccccc2)C(c2ccccc2)=C(c2ccccc2)C2(c3ccccc3)C(=O)C(C)CN12 (centres undefined) .
inactive

Each molecule tested received a call. Report the one for "CCN(CC)c1c(C(=O)/C=C/c2ccc(F)cc2)c(-c2ccccc2)nn(C)c1=O" .
inactive

Each molecule tested received a call. Report the one for "CN(C)c1ccc(/C=N\N2C(=O)c3ccccc3C2=O)cc1" .
inactive

Each molecule tested received a call. Report the one for CCOC(=O)C(NC(=O)c1ccccc1)(Nc1cc(C)on1)C(F)(F)F (centres undefined) .
inactive

Each molecule tested received a call. Report the one for "C=C1C(=O)O[C@@H]2C[C@@]3(C)CCCC(=C)[C@@H]3C[C@H]12.C=C1C(=O)O[C@@H]2C[C@@]3(C)CCC[C@H](C)C3=C[C@H]12" .
inactive

Each molecule tested received a call. Report the one for "COc1ccc2c(CCNC(=O)/C=C/c3ccccc3)c(C(C)=O)[nH]c2c1[N+](=O)[O-]" .
inactive

Each molecule tested received a call. Report the one for CCOC(=O)NC(NCC(O)c1ccccc1)(C(F)(F)F)C(F)(F)F (centres undefined) .
inactive

Each molecule tested received a call. Report the one for "Cc1nc2nn(C)cc2c(=O)n1/N=C/c1ccccc1" .
inactive

Each molecule tested received a call. Report the one for "C[Si](C)(C)CNC(=O)OCc1ccccc1" .
inactive

Each molecule tested received a call. Report the one for "CSc1nc(NC(C)C)c2c(n1)Sc1nc3ccccc3n1N=C2" .
inactive

Each molecule tested received a call. Report the one for "Cc1cc2oc(=N)c(C#N)c(C)c2cc1C" .
inactive

Each molecule tested received a call. Report the one for "CSC1=N/C(=C\c2ccc(C)cc2)C(=O)N1CN1CCOCC1" .
inactive

Each molecule tested received a call. Report the one for CCOC(=O)C1=C(C)N(c2ccc(Cl)cc2)C2(O)C=CC(O)=C3C(=O)c4ccccc4C(=O)C312 (centres undefined) .
inactive

Each molecule tested received a call. Report the one for "O=C(NC(=S)Nc1ccc2c(c1)Sc1ccccc1O2)c1ccccc1" .
inactive

Each molecule tested received a call. Report the one for C=C1CC2CC[C@@]34C[C@@H]5O[C@@H]6C(O[C@H]7CC[C@H](CC(=O)OC8[C@@H](C)C9OC%10C[C@]%11(C[C@@H]%12O[C@@]%13(C[C@@H](C)[C@@H]%12O%11)C[C@H](C)[C@@H]%11OC%12CC(C(O)CO)OC%12C[C@@H]%11O%13)OC%10CC9O[C@H]8C[C@H]8O[C@@H](CC[C@@H]1O2)C[C@@H](C)C8=C)O[C@@H]7[C@@H]6O3)C5O4 (some centres undefined) .
active

Each molecule tested received a call. Report the one for CO/N=C1\CCC2(O)C3Cc4ccc(O)c5c4C2(CCN3CC2CC2)[C@H]1O5 (some centres undefined) .
inactive

Each molecule tested received a call. Report the one for "NC(=O)[N+](=CC(=S)Nc1ccccc1Cl)C(N)=O" .
inactive

Each molecule tested received a call. Report the one for OCC1O[C@H](O[C@@H]2CCCN3CC(O)C(O)[C@@H]23)C(O)C(O)C1O (some centres undefined) .
inactive

Each molecule tested received a call. Report the one for "O=C1/C(=C/c2ccc(Cl)cc2)N=C(c2ccccc2)N1c1nc2ccccc2s1" .
inactive

Each molecule tested received a call. Report the one for "O=C1C[C@@H]2[C@@H](CCC23CCCC3)N1" .
inactive

Each molecule tested received a call. Report the one for "N#C/C(N)=C(C#N)/N=C/N" .
inactive

Each molecule tested received a call. Report the one for "O=C(NCCCCNCCCNC(=O)OCc1ccccc1)OCc1ccccc1" .
inactive

Each molecule tested received a call. Report the one for "O=C(O)CCC/N=C(\C(=N\CCCC(=O)O)c1ccccc1)c1ccccc1" .
inactive

Each molecule tested received a call. Report the one for "O=C1C=C(Nc2nc(O)cc(C(=O)O)n2)c2ccccc2C1=O" .
inactive

Each molecule tested received a call. Report the one for "COC(=O)c1cc2c(cc1O)[C@@H](NC(C)=O)CCc1cc(OC)c(OC)c(OC)c1-2" .
active

Each molecule tested received a call. Report the one for C[C@]12Cc3conc3C(O)=C1CC[C@@H]1C2CC[C@@]2(C)C1CC[C@]2(C)O (some centres undefined) .
inactive
